# tgt: GPIIb/IIIa (Homo sapiens, UniProt P05106+P08514)
# Construct: Purification of GPIIb/IIIa from HEL cells; endogenous in cells; host or cells: HEL cells (HEL 92.1.7, ATCC TIB180); endogenous complex solubilized with Triton X-100 and purified in house
# Sequence (P08514 32-887 limits assumed): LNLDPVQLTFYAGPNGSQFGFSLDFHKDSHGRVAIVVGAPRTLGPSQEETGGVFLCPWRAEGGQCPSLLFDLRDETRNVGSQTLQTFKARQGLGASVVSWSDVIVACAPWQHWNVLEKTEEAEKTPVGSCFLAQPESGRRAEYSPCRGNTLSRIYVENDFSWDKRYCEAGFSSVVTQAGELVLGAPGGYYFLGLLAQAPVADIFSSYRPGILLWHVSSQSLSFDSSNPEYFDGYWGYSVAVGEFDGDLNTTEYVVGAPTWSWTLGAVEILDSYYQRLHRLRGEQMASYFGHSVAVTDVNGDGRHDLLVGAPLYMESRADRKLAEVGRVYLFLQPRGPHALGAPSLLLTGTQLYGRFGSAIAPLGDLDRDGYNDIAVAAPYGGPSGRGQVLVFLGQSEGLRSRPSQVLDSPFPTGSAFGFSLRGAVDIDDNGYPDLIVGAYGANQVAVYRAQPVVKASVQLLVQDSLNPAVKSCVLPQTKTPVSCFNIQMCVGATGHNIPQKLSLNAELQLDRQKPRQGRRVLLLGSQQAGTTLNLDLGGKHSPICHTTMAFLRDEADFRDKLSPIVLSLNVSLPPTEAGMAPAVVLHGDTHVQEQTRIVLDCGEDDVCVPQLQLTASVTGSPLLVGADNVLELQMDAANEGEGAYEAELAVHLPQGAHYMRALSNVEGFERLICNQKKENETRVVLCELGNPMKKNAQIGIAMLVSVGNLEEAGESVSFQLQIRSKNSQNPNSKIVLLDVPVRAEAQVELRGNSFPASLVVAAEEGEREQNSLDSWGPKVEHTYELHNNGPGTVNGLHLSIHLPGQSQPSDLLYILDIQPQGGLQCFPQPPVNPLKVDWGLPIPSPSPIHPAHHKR
# Sequence (P08514 891-1039 limits assumed): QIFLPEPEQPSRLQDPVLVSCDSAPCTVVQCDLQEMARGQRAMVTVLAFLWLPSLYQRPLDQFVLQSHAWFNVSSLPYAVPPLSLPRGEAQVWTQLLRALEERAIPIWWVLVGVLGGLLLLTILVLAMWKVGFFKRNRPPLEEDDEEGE
# Sequence (P05106 27-788): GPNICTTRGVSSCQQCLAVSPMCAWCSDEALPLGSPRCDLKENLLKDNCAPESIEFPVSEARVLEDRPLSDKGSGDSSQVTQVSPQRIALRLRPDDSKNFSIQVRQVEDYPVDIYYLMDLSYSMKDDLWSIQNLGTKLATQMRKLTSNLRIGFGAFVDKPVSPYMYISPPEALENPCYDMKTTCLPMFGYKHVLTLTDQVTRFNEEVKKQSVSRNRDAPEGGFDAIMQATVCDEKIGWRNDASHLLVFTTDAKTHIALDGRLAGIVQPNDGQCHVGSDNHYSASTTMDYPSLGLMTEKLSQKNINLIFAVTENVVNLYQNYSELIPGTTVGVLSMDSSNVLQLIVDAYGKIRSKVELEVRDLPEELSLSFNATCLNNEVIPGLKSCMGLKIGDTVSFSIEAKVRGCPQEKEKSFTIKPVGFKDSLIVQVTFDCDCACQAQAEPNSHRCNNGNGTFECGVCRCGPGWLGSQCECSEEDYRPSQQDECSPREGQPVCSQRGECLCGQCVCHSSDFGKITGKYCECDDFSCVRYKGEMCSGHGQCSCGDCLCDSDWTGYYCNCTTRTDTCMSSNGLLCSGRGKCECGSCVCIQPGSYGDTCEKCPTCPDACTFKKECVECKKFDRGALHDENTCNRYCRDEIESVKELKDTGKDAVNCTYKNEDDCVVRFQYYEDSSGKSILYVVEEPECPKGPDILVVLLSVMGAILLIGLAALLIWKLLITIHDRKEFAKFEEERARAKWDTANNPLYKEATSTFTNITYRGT
# experiment-description: Inhibitory activity against binding of GPIIb/IIIa and fibrinogen
# test-context: Table 2; 10^-5 M; read-out: GPIIb/IIIa Fibrinogen Binding Inhibitory Activity
property-measured: inhibition at 10 µM (%)

The following molecules have reported results that may help.
| molecule | value-unit | inhibition at 10 µM |
| --- | --- | --- |
| O=C(O)c1cn(Cc2nccs2)c2c(F)c(N3CCN(c4ccncc4)CC3)c(F)cc2c1=O | % | 100 |
| O=C(O)c1cn(C2CC2)c2c(F)c(N3Cc4ccccc4C(CO)C3)c(F)cc2c1=O (centres unmarked) | % | 56 |
| CNCCN(C)c1nc2c(cc1F)c(=O)c(C(=O)O)cn2C1CC1 | % | 59.4 |
| O=C(O)c1cn(Cc2nccs2)c2cc(N3CCN(c4ccncc4)CC3)ccc2c1=O | % | 100 |
| O=C(O)c1cn(Cc2nccs2)c2c(F)c(N3CCC(C4CCNCC4)CC3)c(F)cc2c1=O | % | 100 |

[1] O=C(O)c1cn(Cc2ccncc2)c2c(F)c(N3CCNCC3)c(F)cc2c1=O
[2] Cc1cnc2n1CCN(c1c(F)cc3c(=O)c(C(=O)O)cn(C4CC4)c3c1F)C2
Data request: Sort 1 and 2 by inhibition at 10 µM descending and give the first. Identify your pick by its label.
Data returned: 1
(1: 100%, 2: 68.7%)

###

# tgt: GPIIb/IIIa (Homo sapiens, UniProt P05106+P08514)
# Construct: Purification of GPIIb/IIIa from HEL cells; endogenous in cells; host or cells: HEL cells (HEL 92.1.7, ATCC TIB180); endogenous complex solubilized with Triton X-100 and purified in house
# experiment-description: Inhibitory activity against binding of GPIIb/IIIa and fibrinogen
# test-context: Table 1; 1 × 10^-5 M; read-out: GPIIb/IIIa Fibrinogen Binding Inhibitory Activity
# Excerpt: Test Example 1: Inhibitory activity against binding of GPIIb/IIIa and fibrinogen (1) Cultivation of human erythroleukemia-derived cell line (hereinafter referred to as HEL cells) HEL cells (HEl92.1.7; ATCC No. TIB180) were purchased from ATCC (Rockville, Md., U.S.A.). […]
property-measured: inhibition at 10 µM (%)

The following compounds have reported results that may help.
| compound | tgt | value-unit | inhibition at 10 µM |
| --- | --- | --- | --- |
| CCn1cc(C(=O)O)c(=O)c2cc(F)c(N3CCNCC3)nc21 [Enoxacin, reference compound] | GPIIb/IIIa (Homo sapiens, UniProt P05106+P08514) | % | 62 |
| NC1CCN(c2nc3c(cc2F)c(=O)c(C(=O)O)cn3-c2ccc(F)cc2F)C1 (stereo not shown) [Tosufloxacin, reference compound] | GPIIb/IIIa (Homo sapiens, UniProt P05106+P08514) | % | 37.6 |

[P] CC1COc2c(N3CCN(C)CC3)c(F)cc3c(=O)c(C(=O)O)cn1c23 (stereo not shown) [Ofloxacin, reference compound]
[Q] CCn1cc(C(=O)O)c(=O)c2cc(F)c(N3CCNCC3)cc21 [Norfloxacin, reference compound]
Data request: Sort P and Q by inhibition at 10 µM descending and give the first. Identify your pick by its label.
Data returned: Q
(Q: 77.4%, P: 42.4%)

###

# tgt: GPIIb/IIIa (Homo sapiens, UniProt P05106+P08514)
# Construct: Purification of GPIIb/IIIa from HEL cells; endogenous in cells; host or cells: HEL cells (HEL 92.1.7, ATCC TIB180); endogenous complex solubilized with Triton X-100 and purified in house
# experiment-description: Inhibitory activity against binding of GPIIb/IIIa and fibrinogen
# test-context: Table 2; 10^-6 M; read-out: GPIIb/IIIa Fibrinogen Binding Inhibitory Activity
property-measured: inhibition at 1 µM (%)

| compound | inhibition at 1 µM [%] |
| --- | --- |
| NC(=O)OCCn1cc(C(=O)O)c(=O)c2cc(F)c(N3CCNCC3)c(F)c21 [Compound 11] | 84.3 |

[I] O=C(O)c1cn(Cc2nccs2)c2cc(N3CCN(c4ccncc4)CC3)ccc2c1=O [Compound 57]
[II] CCn1cc(C(=O)O)c(=O)c2cc(F)c(N3CCN(c4ccncc4)CC3)cc21 [Compound 3]
[III] NCC1CN(c2c(F)cc3c(=O)c(C(=O)O)cn(C4CC4)c3c2F)Cc2ccccc21 (stereo not drawn) [Compound 37]
[IV] C=CCN(CC=C)c1c(F)cc2c(=O)c(C(=O)O)cn(C3CC3)c2c1F [Compound 43]
[V] O=C(O)c1cn(C2CC2)c2c(F)c(SC3CCNCC3)c(F)cc2c1=O [Compound 19]
Data request: Order the records so the highest inhibition at 1 µM appears first and the lowest last. Please list each label once, in the requested order.
Data returned: I, II, III, IV, V

[a] O=C(O)c1cn(Cc2nccs2)c2c(F)c(N3CCn4ccnc4C3)c(F)cc2c1=O [Compound 51]
[b] O=C(O)c1cn(CCF)c2c(F)c(N3CCn4ccnc4C3)c(F)cc2c1=O [Compound 9]
Data request: Sort a and b by inhibition at 1 µM descending and give the first. Identify your pick by its label.
Data returned: a

[A] CN(C)CCOC1CCN(c2c(F)cc3c(=O)c(C(=O)O)cn(Cc4nccs4)c3c2F)C1 (stereo not drawn) [Compound 62]
[B] CN1CCN(c2c(F)cc3c(=O)c(C(=O)O)cn4c3c2N(C)CC4)CC1 [Compound 53]
Data request: Decide: A or B , by lowest recorded inhibition at 1 µM. Identify your pick by its label.
Data returned: B

[a] CC(=O)NCCN1CCN(c2c(F)cc3c(=O)c(C(=O)O)cn(Cc4nccs4)c3c2F)CC1 [Compound 69]
[b] O=C(O)c1cn(C2CC2)c2c(F)c(N3CCn4ccnc4C3)c(F)cc2c1=O [Compound 18]
Data request: Sort a and b by inhibition at 1 µM descending and give the first. Identify your pick by its label.
Data returned: a
(a: 92.2%, b: 30.5%)

[1] CN(C)CCCNc1c(F)cc2c(=O)c(C(=O)O)cn(Cc3nccs3)c2c1F [Compound 60]
[2] Cc1cnc2n1CCN(c1c(F)cc3c(=O)c(C(=O)O)cn(C4CC4)c3c1F)C2 [Compound 29]
[3] O=C(O)c1cn2c3c(c(N4CCn5ccnc5C4)c(F)cc3c1=O)OCC2 [Compound 52]
[4] NC(=O)CCCNc1c(F)cc2c(=O)c(C(=O)O)cn(C3CC3)c2c1F [Compound 41]
Data request: Number of compounds to sort: 4. Sort criterion: inhibition at 1 µM, ascending. Please list each label once, in the requested order.
Data returned: 4, 2, 3, 1
(4: 17.9%, 2: 38.4%, 3: 55%, 1: 95%)

[1] NC(=O)OC1CCN(c2c(F)cc3c(=O)c(C(=O)O)cn(-c4ccc(F)cc4F)c3c2F)C1 (stereo not drawn) [Compound 47]
[2] O=C(O)c1cn(CCO)c2c(F)c(N3CCn4ccnc4C3)c(F)cc2c1=O [Compound 10]
Data request: Decide: 1 or 2 , by lowest recorded inhibition at 1 µM. Identify your pick by its label.
Data returned: 1

[a] O=C(O)c1cn(C2CC2)c2c(F)c(N3CCc4ccccc4C3)c(F)cc2c1=O [Compound 34]
[b] NC(=O)c1ccc(-n2cc(C(=O)O)c(=O)c3cc(F)c(N4CCNCC4)c(F)c32)cc1 [Compound 49]
Data request: Decide: a or b , by lowest recorded inhibition at 1 µM. Identify your pick by its label.
Data returned: b

[1] CN(C)CCn1cc(C(=O)O)c(=O)c2cc(F)c(N3CCN(C)CC3)cc21 [Compound 13]
[2] O=C(O)c1cn(Cc2nccs2)c2c(F)c(N3CCN(c4ccccn4)CC3)c(F)cc2c1=O [Compound 65]
Data request: Sort 1 and 2 by inhibition at 1 µM descending and give the first. Identify your pick by its label.
Data returned: 2

###

# tgt: GPIIb/IIIa (Homo sapiens, UniProt P05106+P08514)
# Construct: Purification of GPIIb/IIIa from HEL cells; endogenous in cells; host or cells: HEL cells (HEL 92.1.7, ATCC TIB180); endogenous complex solubilized with Triton X-100 and purified in house
# experiment-description: Inhibitory activity against binding of GPIIb/IIIa and fibrinogen
# test-context: Table 2; 10^-5 M; read-out: GPIIb/IIIa Fibrinogen Binding Inhibitory Activity
Structures can show the parent of a compound that is named as a salt.
property-measured: inhibition at 10 µM (%)

| compound | inhibition at 10 µM / % |
| --- | --- |
| COc1cccc(Cn2cc(C(=O)O)c(=O)c3cc(F)c(N4CCC(C5CCNCC5)CC4)c(F)c32)c1 [Compound 80] | 100 |
| O=C(O)c1cn(Cc2nccs2)c2c(F)c(N3CCNCC3)c(F)cc2c1=O [Compound 59, hydrochloride] | 100 |
| CCn1cc(C(=O)O)c(=O)c2cc(F)c(N3CCN(Cc4ccccn4)CC3)cc21 [Compound 4] | 70.9 |
| CN1CCN(C(=O)CCCNc2c(F)cc3c(=O)c(C(=O)O)cn(C4CC4)c3c2F)CC1 [Compound 42] | 67.3 |
| O=C(O)c1cn(C2CC2)c2c(F)c(N3CCN4CCC[C@@H]4C3)c(F)cc2c1=O [Compound 31] | 73 |
| CN(C)Cc1cn2c(n1)CN(c1c(F)cc3c(=O)c(C(=O)O)cn(C4CC4)c3c1F)CC2 [Compound 28] | 95.8 |
| O=C(O)c1cn(-c2ccncc2)c2c(F)c(N3CCNCC3)c(F)cc2c1=O [Compound 54] | 50.1 |
| O=C(O)c1cn(Cc2cscn2)c2c(F)c(N3CCNCC3)c(F)cc2c1=O [Compound 72, hydrochloride] | 100 |

[a] O=C(O)c1cn(Cc2nccs2)c2c(F)c(N3CCN(c4ccccn4)CC3)c(F)cc2c1=O [Compound 65]
[b] CN1CCN(c2c(F)cc3c(=O)c(C(=O)O)cn(C4CN(C)C4)c3c2F)CC1 [Compound 16]
Data request: Decide: a or b , by lowest recorded inhibition at 10 µM. Identify your pick by its label.
Data returned: b
